Listing of entries alongside the reported GI50.
System: TK-10 renal
Assay: NCI tumour cell line growth inhibition, 48 h

Here are 3 compounds together with their reported answers.
COc1ccc2c(c1)c(-c1nc(-c3c[nH]c4ncccc34)cs1)cn2CCCCN1CCOCC1 : 5250 nM
O=C(CCCCCCSc1nc(-c2ccccc2)cc(-c2ccccc2)n1)NO : 2510 nM
O=C1/C(=C/c2ccc([N+](=O)[O-])o2)Oc2ccc(Br)cc21 : 2110 nM

We now examine a further compound.
[in] Fill blank: measured GI50 of the compound COc1ccn2c(C(C)=O)cc(C(=O)c3ccc4c(c3)Sc3ccccc3N4)c2c1 is ____.
[out] 340 nM
